Could you please report measured IC50 for the items listed next?
tested.on: full-length beta-Catenin (Uniprot ID P35222) (Homo sapiens, UniProt P35222)
Construct: 10 nM full-length beta-Catenin (Uniprot ID P35222)
Sequence (P35222 whole entry): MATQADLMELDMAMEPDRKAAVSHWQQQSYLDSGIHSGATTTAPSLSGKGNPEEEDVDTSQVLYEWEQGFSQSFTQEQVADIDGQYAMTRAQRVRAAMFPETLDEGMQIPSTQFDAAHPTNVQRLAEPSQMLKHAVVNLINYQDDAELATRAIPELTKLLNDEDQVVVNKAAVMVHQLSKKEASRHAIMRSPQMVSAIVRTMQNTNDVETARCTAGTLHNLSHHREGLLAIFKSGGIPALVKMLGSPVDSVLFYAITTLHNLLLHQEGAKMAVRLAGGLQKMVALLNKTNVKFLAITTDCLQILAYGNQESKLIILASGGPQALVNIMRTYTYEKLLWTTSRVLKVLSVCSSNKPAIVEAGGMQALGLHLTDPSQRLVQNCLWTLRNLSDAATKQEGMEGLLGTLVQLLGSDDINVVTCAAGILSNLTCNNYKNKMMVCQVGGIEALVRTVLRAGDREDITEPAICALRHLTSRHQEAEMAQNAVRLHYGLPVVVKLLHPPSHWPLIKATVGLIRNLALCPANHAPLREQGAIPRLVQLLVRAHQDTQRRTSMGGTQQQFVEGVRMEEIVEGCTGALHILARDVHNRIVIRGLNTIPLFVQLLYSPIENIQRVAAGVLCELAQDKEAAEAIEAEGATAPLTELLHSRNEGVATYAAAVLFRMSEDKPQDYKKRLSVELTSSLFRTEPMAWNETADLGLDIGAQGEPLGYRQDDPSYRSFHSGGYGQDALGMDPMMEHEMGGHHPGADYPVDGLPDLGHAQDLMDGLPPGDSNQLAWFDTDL
method.notes: Fluorescence polarization IC50 (beta-catenin / 5FAM-TCF4 10-53 competition)
Type: binding
assay.conditions: Table E2-1; read-out: beta-Catenin FP IC50
Write down the numeric answer in nM and omit the unit.

Endpoint output: IC50 of CC[C@H](C)[C@@H]1NC(=O)[C@H](CC(=O)O)NC(=O)[C@]2(CC=CCCCC3(CCCC=CCCCCCC[C@@](C)(C(=O)N[C@@H](Cc4ccccc4)C(=O)N[C@@H](Cc4c[nH]c5ccccc45)C(=O)N[C@@H](CCC(N)=O)C(N)=O)NC(=O)[C@H](CCC(N)=O)NC(=O)[C@H](Cc4ccccc4)NC(=O)[C@H](C)NC(=O)[C@H](C)NC(=O)[C@H](CCC(=O)O)NC(=O)[C@H](CC(=O)O)NC3=O)NC1=O)CCCN2C(C)=O (some centres unmarked) [I-181] . Value?
310

Endpoint output: IC50 of CC(=O)N1CCC[C@]12CC=CCCCC1(CCCC=CCCCCCC[C@@](C)(C(=O)N[C@@H](Cc3ccccc3)C(=O)N[C@@H](Cc3c[nH]c4ccccc34)C(=O)N[C@@H](CCC(N)=O)C(N)=O)NC(=O)[C@H](C(C)C)NC(=O)C(Cc3cncn3C)NC(=O)[C@H](C)NC(=O)[C@H](C)NC(=O)[C@H](CC(=O)O)NC(=O)[C@H](CC(=O)O)NC1=O)NC(=O)[C@H](C)NC(=O)[C@H](CC(=O)O)NC2=O (single isomer, unassigned) [I-331] . Value?
5000

Endpoint output: IC50 of CC[C@H](C)[C@@H]1NC(=O)[C@H](CC(=O)O)NC(=O)[C@]2(CC=CCCCC3(CCCC=CCOC(=O)N(C)CCC[C@@](C)(C(=O)N[C@@H](Cc4ccccc4)C(=O)N[C@@H](Cc4c[nH]c5ccccc45)C(=O)N[C@@H](Cc4c[nH]cn4)C(N)=O)NC(=O)[C@H](CCC(N)=O)NC(=O)[C@H](Cc4ccccc4)NC(=O)[C@H](C)NC(=O)[C@H](C)NC(=O)[C@H](CC(=O)O)NC(=O)[C@H](CC(=O)O)NC3=O)NC1=O)CCCN2C(C)=O (some centres unmarked) [I-190] . Value?
696

Endpoint output: IC50 of CC(=O)N1CCC[C@]12CC=CCCCC1(CCCC=CCCCCCC[C@@](C)(C(=O)N[C@@H](Cc3ccccc3)C(=O)N[C@@H](Cc3c[nH]c4ccccc34)C(=O)N[C@@H](CCC(N)=O)C(N)=O)NC(=O)[C@H](C(C)C)NC(=O)[C@H](Cc3ccccc3)NC(=O)[C@H](C)NC(=O)[C@H](C)NC(=O)[C@H](Cc3ccccn3)NC(=O)[C@H](CC(=O)O)NC1=O)NC(=O)[C@H](C)NC(=O)[C@H](CC(=O)O)NC2=O (some centres unmarked) [I-270] . Value?
5000

Endpoint output: IC50 of CC(=O)N1CCC[C@]12CC=CCCCC1(CCCC=CCCCCCC[C@@](C)(C(=O)N[C@@H](Cc3ccccc3)C(=O)N[C@@H](Cc3c[nH]c4ccccc34)C(=O)N[C@@H](CCC(N)=O)C(N)=O)NC(=O)[C@H](C(C)C)NC(=O)[C@H](Cc3ccccc3)NC(=O)[C@H](C)NC(=O)[C@H](C)NC(=O)[C@@H](CCC(=O)O)NC(=O)[C@H](CC(=O)O)NC1=O)NC(=O)[C@H](C)NC(=O)[C@H](CC(=O)O)NC2=O (some centres unmarked) [I-182] . Value?
2800

* * *

method.notes: CHI Log D procedure
Type: physicochemical
assay.conditions: pH 7.4, CHI Log D
quantity: chromatographic logD
The response must contain the number and no unit.

Endpoint output: chromatographic logD of CC(=O)N1CCC[C@]12CC=CCCCC1(CCCC=CCCCCCC[C@@](C)(C(=O)N[C@@H](Cc3ccccc3Cl)C(=O)N[C@@H](Cc3csc4ccccc34)C(=O)N[C@@H](CCO)C(N)=O)NC(=O)[C@H](CCO)NC(=O)[C@H](Cc3ccccc3)NC(=O)[C@H](C)NC(=O)[C@H](C)NC(=O)[C@H](CN(CC(=O)O)CC(F)(F)F)NC(=O)[C@H](CC(=O)O)NC1=O)NC(=O)[C@H](CC(C)(C)C)NC(=O)[C@H](CC(=O)O)NC2=O (stereo partly drawn) [I-1000] . Value?
2.97

Endpoint output: chromatographic logD of CC(=O)N1CCC[C@]12CC=CCCCC1(CCCC=CCCCCCC[C@@](C)(C(=O)N[C@@H](Cc3ccccc3Cl)C(=O)N[C@@H](Cc3csc4ccccc34)C(=O)N[C@@H](C(N)=O)[C@H](C)O)NC(=O)[C@H]([C@@H](C)O)NC(=O)[C@H](Cc3ccccc3)NC(=O)[C@H](C)NC(=O)[C@H](C)NC(=O)[C@H](CC(=O)O)NC(=O)[C@H](CC(=O)O)NC1=O)NC(=O)[C@H](CC(C)(C)C)NC(=O)[C@H](CC(=O)O)NC2=O (stereo partly drawn) [I-1092] . Value?
3.17

Endpoint output: chromatographic logD of CC(=O)N1CCC[C@]12CC=CCCCC1(CCCC=CCCCOC(=O)N3CC[C@@](C(=O)N[C@@H](Cc4ccccc4Cl)C(=O)N[C@@H](Cc4csc5ccccc45)C(=O)N[C@@H](CO)C(N)=O)(C3)NC(=O)[C@H]([C@@H](C)O)NC(=O)[C@H](Cc3ccccc3)NC(=O)[C@H](C)NC(=O)[C@H](C)NC(=O)[C@H](CC(=O)O)NC(=O)[C@H](CC(=O)O)NC1=O)NC(=O)[C@H](Cc1ccc3ccccc3c1)NC(=O)[C@H](CC(=O)O)NC2=O (stereo partly drawn) [I-1115] . Value?
2.5

* * *

tested.on: full-length beta-Catenin (Uniprot ID P35222) (Homo sapiens)
Construct: 10 nM full-length beta-Catenin (Uniprot ID P35222)
method.notes: Fluorescence polarization IC50 (beta-catenin / 5FAM-TCF4 10-53 competition)
Format: binding
assay.conditions: fluorescence polarization; read-out: beta-Catenin FP IC50
quantity: IC50 (nM)
Write down the numeric answer in nM and omit the unit.

Enter reported IC50 observed with full-length beta-Catenin (Uniprot ID P35222) (Homo sapiens) for CC[C@@H]1NC(=O)[C@H](CC(=O)O)NC(=O)[C@]2(CC=CCCCC3(CCCC=CCCCCCC[C@@](C)(C(=O)N[C@@H](Cc4ccccc4)C(=O)N[C@@H](Cc4csc5ccccc45)C(=O)N[C@@H](CCC(N)=O)C(N)=O)NC(=O)[C@H](CCC(N)=O)NC(=O)[C@H](Cc4ccccc4)NC(=O)[C@H](C)NC(=O)[C@H](C)NC(=O)[C@H](CCC(=O)O)NC(=O)[C@H](CC(=O)O)NC3=O)NC1=O)CCCN2C(C)=O (stereo partly drawn) [I-568]
73

Enter reported IC50 observed with full-length beta-Catenin (Uniprot ID P35222) (Homo sapiens) for CC(=O)N1CCC[C@]12CC=CCCCC1(CCCC=CCCCOC(=O)N3CC[C@@](C(=O)N[C@@H](Cc4ccccc4Cl)C(=O)N[C@@H](Cc4csc5ccccc45)C(=O)N[C@@H](CCC(N)=O)C(N)=O)(C3)NC(=O)[C@H](CC(N)=O)NC(=O)[C@H](Cc3ccccc3)NC(=O)[C@H](C)NC(=O)[C@H](C)NC(=O)[C@H](CC(=O)O)NC(=O)[C@H](CC(=O)O)NC1=O)NC(=O)[C@H](CC(C)(C)C)NC(=O)[C@H](CC(=O)S)NC2=O (stereo partly drawn) [I-1722]
135

Enter reported IC50 observed with full-length beta-Catenin (Uniprot ID P35222) (Homo sapiens) for CC(=O)N1CCC[C@]12CC=CCCCC1(CCCC=CCCCOC(=O)N3CC[C@@](C(=O)N[C@@H](Cc4ccsc4)C(=O)N[C@@H](Cc4csc5ccccc45)C(=O)N[C@@H](CCC(N)=O)C(N)=O)(C3)NC(=O)[C@H](Cc3ccccc3C(F)(F)F)NC(=O)[C@H](Cc3ccccc3)NC(=O)[C@H](C)NC(=O)[C@H](C)NC(=O)[C@H](CC(=O)O)NC(=O)[C@H](CC(=O)O)NC1=O)NC(=O)[C@H](CC(C)(C)C)NC(=O)[C@H](CC(=O)O)NC2=O (stereo partly drawn)
9

* * *

tested.on: full-length beta-Catenin (Uniprot ID P35222) (Homo sapiens, UniProt P35222)
Construct: 10 nM full-length beta-Catenin (Uniprot ID P35222)
method.notes: Fluorescence polarization IC50 (beta-catenin / 5FAM-TCF4 10-53 competition)
Type: binding
assay.conditions: fluorescence polarization; read-out: beta-Catenin FP IC50
quantity: pIC50
Please note pIC50 is a logarithmic value: minus log10 of concentration in mol/L. Answer with that number alone.

Endpoint output: pIC50 of CC(=O)N1CCC[C@]12CC=CCCCC1(CCCC=CCCCOC(=O)N3CC[C@@](C(=O)N[C@@H](Cc4ccsc4)C(=O)N[C@@H](Cc4csc5ccccc45)C(=O)N[C@@H](CCC(N)=O)C(N)=O)(C3)NC(=O)[C@H](CC(N)=O)NC(=O)[C@H](Cc3ccccc3)NC(=O)[C@H](C)NC(=O)[C@H](C)NC(=O)[C@H](CC(N)=O)NC(=O)[C@H](CC(C)C)NC1=O)NC(=O)[C@H](CC(C)(C)C)NC(=O)[C@H](CC(=O)O)NC2=O (stereo partly drawn) [I-1563] . Value?
5.55

Endpoint output: pIC50 of COC(=O)N1CCC[C@]12CC=CCCCC1(CCCC=CCCCOC(=O)N3CC[C@@](C(=O)N[C@@H](Cc4ccccc4Cl)C(=O)N[C@@H](Cc4csc5ccccc45)C(=O)N[C@@H](C)C(N)=O)(C3)NC(=O)[C@H](CC(C)C)NC(=O)[C@H](Cc3ccccc3)NC(=O)[C@H](C)NC(=O)[C@H](C)NC(=O)[C@H](Cc3cccc(C(=O)O)c3)NC(=O)[C@H](CC(=O)O)NC1=O)NC(=O)[C@H](CC(C)(C)C)NC(=O)[C@H](CC(=O)O)NC2=O (stereo partly drawn) [I-2324] . Value?
7.08

Endpoint output: pIC50 of CC(=O)N1CCC[C@]12CC=CCCCC1(CCCC=CCCCOC(=O)N3CC[C@@](C(=O)N[C@@H](Cc4ccccc4)C(=O)N[C@@H](Cc4csc5ccccc45)C(=O)N[C@@H](CCC(N)=O)C(N)=O)(C3)NC(=O)[C@H](CC(C)C)NC(=O)[C@H](CC3CCCCC3)NC(=O)[C@H](C)NC(=O)[C@H](CCCCNC(C)C)NC(=O)[C@H](CCC(N)=O)NC(=O)[C@H](CC(=O)O)NC1=O)NC(=O)[C@H](CC(C)(C)C)NC(=O)[C@H](CC(N)=O)NC2=O (stereo partly drawn) [I-1649] . Value?
5.61
